PROCEDURE_DETAILS: Oral bioavailability in rhesus monkey at 6.5 mg/kg
Format: ADME, organism-based, Macaca mulatta
EXPERIMENTAL_SETUP: in vivo
ASSAY_READOUT: bioavailability (%)
Dear colleague, please return just the value in %, with no unit written.

Look up bioavailability of CN(C)S(=O)(=O)N(C)[C@@H]1CCCn2c1nc(C(=O)NCc1ccc(F)cc1)c(O)c2=O and report it.
9

---

PROCEDURE_DETAILS: Plasma clearance in rat at 3 mg/kg, po or 3 mg/kg, iv
Type: ADME, organism-based
ASSAY_READOUT: log10(clearance) (log10 of the value in mL/min/kg)
Hi team, quick reminder: these entries are log10 of clearance (mL/min/kg).

These solved cases illustrate the format of a correct answer.
COMPOUND | log10(clearance)
CN(C)S(=O)(=O)N(C)[C@H]1CCCn2c1nc(C(=O)NCc1ccc(F)cc1)c(O)c2=O | 1.15
CN(C1CCCn2c1nc(C(=O)NCc1ccc(F)cc1)c(O)c2=O)S(C)(=O)=O (racemic) | 1.68
CN(C(=O)CS(=O)(=O)N(C)C)[C@H]1CCCn2c1nc(C(=O)NCc1ccc(F)cc1)c(O)c2=O | 1.74
CN1CCN(S(=O)(=O)N(C)[C@H]2CCCn3c2nc(C(=O)NCc2ccc(F)cc2)c(O)c3=O)CC1 | 1.99
CN(C)C(=O)C(=O)N(C)[C@H]1CCCn2c1nc(C(=O)NCc1ccc(F)cc1)c(O)c2=O | 1.04

Please turn your attention to the following entry.
Look up log10(clearance) of CN(C)S(=O)(=O)N(C)[C@@H]1CCCn2c1nc(C(=O)NCc1ccc(F)cc1)c(O)c2=O and report it.
0.26

---

PROCEDURE_DETAILS: Volume of distribution at steady state in rhesus monkey at 2 mg/kg, iv or 10 mg/kg, po
EXPERIMENTAL_SETUP: in vivo, read-out: Vdss
ASSAY_READOUT: Vd (L/kg)
Dear colleague, please return just the value in L/kg, with no unit written.

Look up Vd of CN(C)C(=O)C(=O)N(C)[C@H]1CCCCn2c1nc(C(=O)NCc1ccc(F)cc1)c(O)c2=O and report it.
0.7

---

Test system: Liver
PROCEDURE_DETAILS: Metabolic stability in dog liver microsomes in presence of NADPH and UDPGA
Format: ADME, Canis lupus familiaris, Microsome
Below, each entry is listed with its recorded Stability.
Dear colleague, please return just the value in µL/min/mg, with no unit written.

COMPOUND_STRING | VALUE_UNITS | Stability
CN1CCN(S(=O)(=O)N(C)[C@H]2CCCn3c2nc(C(=O)NCc2ccc(F)cc2)c(O)c3=O)CC1 | µL/min/mg | 8

Please turn your attention to the following entry.
Look up Stability of CN(C)C(=O)C(=O)N(C)[C@H]1CCCCn2c1nc(C(=O)NCc1ccc(F)cc1)c(O)c2=O and report it.
4

---

Below, each entry is listed with its recorded IC50.
PROCEDURE_DETAILS: Inhibition of human DNA polymerase gamma

COMPOUND_STRING | TEST_RESULT
CN(C)S(=O)(=O)N(C)[C@@H]1CCCn2c1nc(C(=O)NCc1ccc(F)cc1)c(O)c2=O | > 200 µM

Please turn your attention to the following entry.
Look up IC50 of CN(C)C(=O)C(=O)N(C)[C@H]1CCCCn2c1nc(C(=O)NCc1ccc(F)cc1)c(O)c2=O and report it.
> 10 µM
